// data source = the nanobody polyreactivity screen of Harvey et al. (2022)

# Protocol Details: yeast display, Sf9 membrane polyspecificity reagent, FACS + sequencing; frameworks hold sequencing errors
Readout Kind: polyreactivity (PSR sort gate)

>>> val("RVHLQESGGGLVQAGGSLRLSCAASGTIFIRGDMGWYRQAPGKEREFVATIDTVSNTYYADSEKGRFTISRDNAKNAVYLQMNCLNPGDTAVYYCVVDYQLAGRLRYWGQGTQVTLSS")
"low polyreactivity"
>>> val("QVHLVESGGGLVQAGGSLRISCAASGSIFKGYAMGWYRQAPGKERELVAAITIDGSTYYADSVKGRFTISRDNAKNTVYLQMNSLKPEDTAVYYCDAVYLWYGSWPLHFAAYDYWGQGTQVTVSS")
"low polyreactivity"
